# Test system: THP-1
# Method notes: Induction of apoptosis in TRAIL-resistant human THP1 cells assessed as pro-apoptotic cells at 50 uM after 24 hrs by annexin-V staining
# Assay type: functional
Listed next: entries and their corresponding Activity.
All answers are understood in %, so give the number only.

Take a look at these entries with their results.
| Molecule | Observed measurement |
| --- | --- |
| CC1(C)O[C@H]2C3=C4[C@@H](CCCC[C@@]42O1)[C@H](C1(O)CCCC1)/C=C\C=C/3CO | 2 |
| CC1(C)O[C@@H]2C3=C(/C(CO)=C\C=C/[C@@H](C4(O)CCCCC4)[C@@H]3c3ccccc3)[C@@H]2O1 | 3 |

[in] Give its Activity value. Item: CC(C)CC(O)(CC(C)C)[C@@H]1/C=C\C=C(\CO)C2=C([C@H]3OC(C)(C)O[C@@H]23)[C@H]1c1ccccc1 (relative stereo)
[out] 97

[in] Which Activity is listed for CC1(C)O[C@@H]2C3=C(/C(CO)=C\C=C/[C@@H](C(C)(C)O)[C@@H]3c3ccccc3)[C@@H]2O1 (relative stereo) ?
[out] 2

[in] I have this molecule here, CC1(C)O[C@@H]2[C@]3(CCC[C@@H]4[C@@H]5[C@H]6[C@H](C=C(CO)[C@@]2(O)[C@]643)OC5(C)C)O1 , and I need its recorded Activity.
[out] 29

[in] Requested read-out: Activity. Entry: CCCCC1(CCCC)O[C@H]2C=C(CO)[C@]3(O)[C@@H]4OC(C)(C)O[C@@]45CCC[C@@H]4[C@@H]1[C@@H]2[C@@]453
[out] 15

[in] Item under review: CCCCCC[C@@H]1/C=C\C=C(\CO)C2=C([C@H]3OC(C)(C)O[C@@H]23)[C@H]1c1ccccc1 . Reported Activity?
[out] 97

[in] Field request: Activity | item: CC1(C)O[C@H]2C3=C4[C@@H](CCC[C@@]42O1)[C@H](C(C)(C)O)/C=C\C=C/3CO
[out] 2

====

# Tested on: THP-1
# Method notes: Induction of apoptosis in TRAIL-resistant human THP1 cells assessed as pro-apoptotic cells at 50 uM after 24 hrs by annexin-V staining
# Format: functional
Label rule, in plain words: Activity of 5% and up is fulfilled, under 5% is not fulfilled.

A selection of reference data follows.
| Molecule | Class assignment |
| --- | --- |
| CC(C)CC(O)(CC(C)C)[C@@H]1/C=C\C=C(\CO)C2=C3[C@H]1CCCC[C@@]31OC(C)(C)O[C@@H]21 | fulfilled |
| CC1(C)O[C@@H]2[C@]3(CCC[C@@H]4[C@H]5CO[C@H]6C=C(CO)[C@@]2(O)[C@]43[C@@H]56)O1 | fulfilled |
| CC1(C)O[C@@H]2C3=C(/C(CO)=C\C=C/[C@@H](C4(O)CCCC4)[C@@H]3c3ccccc3)[C@@H]2O1 | not fulfilled |
| CCCCCC[C@@H]1/C=C\C=C(\CO)C2=C3[C@H]1CCCC[C@@]31OC(C)(C)O[C@@H]21 | fulfilled |
| CC1=C(O)C(=O)C=C2C1=CC=C1[C@@]2(C)CC[C@@]2(C)[C@@H]3C[C@](C)(C(=O)O)CC[C@]3(C)CC[C@]12C | fulfilled |
| CC1(C)O[C@H]2C3=C4[C@@H](CCCC[C@@]42O1)[C@H](C1(O)CCCCC1)/C=C\C=C/3CO | not fulfilled |

[in] For this molecule, is measured Activity 5% or higher? CC1(C)O[C@H]2C3=C4[C@@H](CCCC[C@@]42O1)[C@H](CCc1ccccc1)/C=C\C=C/3CO
[out] fulfilled

[in] Form field: Activity at least 5%? Entry: CC(C)CC1(CC(C)C)O[C@H]2C=C(CO)[C@]3(O)[C@@H]4OC(C)(C)O[C@@]45CCC[C@@H]4[C@@H]1[C@@H]2[C@@]453
[out] fulfilled

[in] Assess whether reported Activity for CC1(C)O[C@@H]2C3=C(/C(CO)=C\C=C/[C@@H](CCc4ccccc4)[C@@H]3c3ccccc3)[C@@H]2O1 (relative stereo) sits at 5% or higher.
[out] fulfilled

[in] Check this molecule for Activity at or above 5%: CC1(C)O[C@H]2C3=C4[C@@H](CCCC[C@@]42O1)[C@H](C(C)(C)O)/C=C\C=C/3CO
[out] not fulfilled

The measured values listed here are drawn from ChEMBL document CHEMBL1268895.
